Data provenance: PubChem BioAssay AID1159580

ASSAY_INFO: chemical genetic growth profiling, strain panel (AID 1159580);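 also: tested at 20 µM; growth read once vehicle control cultures reached saturation at 30 °C; lower values mean less growth of the strain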
RUN_PARAMETERS: S. cerevisiae deletion strains, growth OD, locus YMR058W, strain fet3, active compounds read low
The whole screen tested about 5,500 compounds, of which about 2,000 (36%) were called active. Inconclusive results (about 18%) are left out. This is one part of the list.
Flag rule - normalized growth less than 1 flags Criterion met; the remaining entries get Criterion not met.

[
  {
    "MOLECULE": "O=c1c(O)c(-c2ccc(O)cc2O)oc2cc(O)cc(O)c12",
    "LABEL": "Criterion met"
  },
  {
    "MOLECULE": "C[C@@H]1O[C@@H](OC[C@H]2OC(Oc3c(-c4ccc(O)c(O)c4)oc4cc(O)cc(O)c4c3=O)[C@H](O)[C@@H](O)[C@@H]2O)[C@H](O)[C@H](O)[C@H]1O (some centres not stated)",
    "LABEL": "Criterion met"
  }
]

Query molecule follows.
Request: Is the reported normalized growth for "COc1cc(OC)c2c(=O)c(OC)c(-c3ccc(OC)c(OC)c3)oc2c1" strictly below 1?
Response: Criterion not met
